Data origin: patent US8637542B2

pIC50: −log10 of the molar value.
pIC50 tested on PI3K α (Homo sapiens, UniProt P42336): recorded values
Sequence (P42336 whole entry): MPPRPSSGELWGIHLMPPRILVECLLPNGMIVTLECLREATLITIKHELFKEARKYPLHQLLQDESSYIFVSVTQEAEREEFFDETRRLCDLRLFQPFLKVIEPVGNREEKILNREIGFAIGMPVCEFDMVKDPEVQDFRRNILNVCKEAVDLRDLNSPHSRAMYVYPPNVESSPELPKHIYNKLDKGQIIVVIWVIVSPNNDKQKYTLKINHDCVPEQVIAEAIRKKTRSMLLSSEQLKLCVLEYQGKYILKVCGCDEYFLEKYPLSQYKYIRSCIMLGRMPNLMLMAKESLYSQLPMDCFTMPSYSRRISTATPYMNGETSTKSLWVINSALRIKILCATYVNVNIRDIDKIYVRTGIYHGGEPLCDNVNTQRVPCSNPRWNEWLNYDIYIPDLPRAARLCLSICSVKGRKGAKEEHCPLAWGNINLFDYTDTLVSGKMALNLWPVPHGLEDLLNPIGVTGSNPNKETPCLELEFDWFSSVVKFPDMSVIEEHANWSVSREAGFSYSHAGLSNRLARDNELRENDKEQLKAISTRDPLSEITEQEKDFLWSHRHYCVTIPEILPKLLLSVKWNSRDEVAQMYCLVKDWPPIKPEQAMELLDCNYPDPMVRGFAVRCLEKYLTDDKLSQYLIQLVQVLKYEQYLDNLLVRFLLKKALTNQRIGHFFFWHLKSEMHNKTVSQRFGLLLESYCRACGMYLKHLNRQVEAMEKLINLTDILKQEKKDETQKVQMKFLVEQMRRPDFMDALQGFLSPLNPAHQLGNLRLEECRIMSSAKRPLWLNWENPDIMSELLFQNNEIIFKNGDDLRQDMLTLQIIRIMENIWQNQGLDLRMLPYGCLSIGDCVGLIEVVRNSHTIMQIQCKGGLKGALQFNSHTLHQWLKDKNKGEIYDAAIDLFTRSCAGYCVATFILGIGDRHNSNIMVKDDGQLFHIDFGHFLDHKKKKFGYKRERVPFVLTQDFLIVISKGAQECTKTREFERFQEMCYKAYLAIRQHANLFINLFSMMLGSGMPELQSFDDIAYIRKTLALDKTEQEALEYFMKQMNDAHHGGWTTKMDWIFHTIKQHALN
Sequence (P27986 whole entry partner): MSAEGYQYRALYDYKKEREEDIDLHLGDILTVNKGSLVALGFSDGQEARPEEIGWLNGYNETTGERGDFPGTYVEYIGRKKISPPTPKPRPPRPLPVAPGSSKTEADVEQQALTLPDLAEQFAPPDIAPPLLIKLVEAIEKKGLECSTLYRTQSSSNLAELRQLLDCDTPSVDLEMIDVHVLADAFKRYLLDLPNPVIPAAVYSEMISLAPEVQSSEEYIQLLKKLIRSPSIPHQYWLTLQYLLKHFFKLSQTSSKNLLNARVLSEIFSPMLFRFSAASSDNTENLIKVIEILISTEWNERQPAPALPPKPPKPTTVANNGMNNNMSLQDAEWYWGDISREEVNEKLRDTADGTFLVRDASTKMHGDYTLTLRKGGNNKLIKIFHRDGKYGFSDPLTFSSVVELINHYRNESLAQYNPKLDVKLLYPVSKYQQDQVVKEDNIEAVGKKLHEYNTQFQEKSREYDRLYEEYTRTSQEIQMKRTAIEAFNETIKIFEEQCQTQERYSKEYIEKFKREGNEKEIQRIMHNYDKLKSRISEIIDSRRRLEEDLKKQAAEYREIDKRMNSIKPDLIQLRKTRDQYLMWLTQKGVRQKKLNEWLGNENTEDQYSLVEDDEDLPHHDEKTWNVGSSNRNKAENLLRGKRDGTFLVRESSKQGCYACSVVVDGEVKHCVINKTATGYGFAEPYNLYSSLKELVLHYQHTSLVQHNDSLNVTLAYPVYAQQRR

molecule	pIC50
CC(C)n1nc(-c2ccc3oc(N)nc3c2)c2c(N)nccc21 [Compound 4]	< 6.00
CC(C)n1nc(-c2ccc3onc(N)c3c2)c2c(N)nccc21 [Compound 2]	< 6.00
CC(C)n1nc(-c2cnc3[nH]ccc3c2)c2c(N)nccc21 [Compound 3]	< 6.00

----------
Molecular target: PI3K δ (Homo sapiens)
Sequence (O00329 whole entry): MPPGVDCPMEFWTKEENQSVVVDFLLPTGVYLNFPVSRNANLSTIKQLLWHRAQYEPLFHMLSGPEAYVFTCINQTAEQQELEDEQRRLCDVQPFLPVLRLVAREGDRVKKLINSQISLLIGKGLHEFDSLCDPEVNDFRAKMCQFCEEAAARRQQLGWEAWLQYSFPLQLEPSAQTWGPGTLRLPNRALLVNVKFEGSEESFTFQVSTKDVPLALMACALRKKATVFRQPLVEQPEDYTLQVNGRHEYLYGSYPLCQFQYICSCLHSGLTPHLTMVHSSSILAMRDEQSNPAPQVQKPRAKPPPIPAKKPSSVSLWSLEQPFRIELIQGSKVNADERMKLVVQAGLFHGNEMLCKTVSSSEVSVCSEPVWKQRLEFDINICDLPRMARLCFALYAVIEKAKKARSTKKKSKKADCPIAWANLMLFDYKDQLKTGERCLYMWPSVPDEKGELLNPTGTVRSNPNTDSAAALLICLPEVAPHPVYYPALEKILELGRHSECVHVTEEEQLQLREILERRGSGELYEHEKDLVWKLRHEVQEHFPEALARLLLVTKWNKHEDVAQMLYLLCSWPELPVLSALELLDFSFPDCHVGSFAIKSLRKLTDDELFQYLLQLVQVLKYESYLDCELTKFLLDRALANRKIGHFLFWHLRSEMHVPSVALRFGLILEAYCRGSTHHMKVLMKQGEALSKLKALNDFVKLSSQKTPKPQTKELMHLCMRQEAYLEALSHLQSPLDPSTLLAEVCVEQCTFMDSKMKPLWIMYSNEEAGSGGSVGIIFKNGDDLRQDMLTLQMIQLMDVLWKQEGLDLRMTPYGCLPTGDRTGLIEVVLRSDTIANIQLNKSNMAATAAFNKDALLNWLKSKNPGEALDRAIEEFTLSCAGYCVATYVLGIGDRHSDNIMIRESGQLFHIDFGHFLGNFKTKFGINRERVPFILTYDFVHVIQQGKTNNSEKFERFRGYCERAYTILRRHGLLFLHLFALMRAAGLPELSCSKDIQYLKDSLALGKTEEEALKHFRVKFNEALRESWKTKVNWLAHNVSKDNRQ
Sequence (P27986 whole entry partner): as the sequence (P27986 whole entry partner) above
pIC50: −log10 of the molar value.

query_smiles	pIC50
CC(C)n1nc(-c2cnc3[nH]ccc3c2)c2c(N)nccc21	< 6.00
